- Test system: UO-31
- EXPERIMENT NOTES: NCI tumour cell line growth inhibition, 48 h
Active and inactive are the calls of the source. Rule as the data show it: active = GI50 up to about 1.1 µM and inactive = higher.
QUANTITY KIND: GI50

O=C(c1ccccc1)c1nnn(Cc2ccccc2Cn2nnc(C(=O)c3ccccc3)c2C(=O)c2ccccc2)c1C(=O)c1ccccc1 = > 100 µM (inactive)
CCN(CC)CCCC(C)Nc1ccnc(/C=C/c2ccc(Cl)cc2)c1 (centres undefined) = 1.52 µM (inactive)

State the recorded GI50 for this entry: O=C1c2ccccc2-c2oc(=O)c3ccccc3c21 > 100 µM (inactive)

State the recorded GI50 for this entry: O=C(O)c1ccc(C2=Cc3cc(Cl)ccc3OC2)cc1 90.4 µM (inactive)

State the recorded GI50 for this entry: Cc1nc(=O)[nH]c2s/c(=N/C3CCCCC3)n(C3CCCCC3)c(=O)c12 > 100 µM (inactive)

State the recorded GI50 for this entry: Cc1cc(OCc2nnc3n2N=C(c2cc(F)c(Cl)cc2Cl)/C(=C/c2ccc(Cl)cc2)S3)ccc1Cl 27.5 µM (inactive)

State the recorded GI50 for this entry: Cc1ccc2c(c1C)CC1(Cc3c(C)ccc(C)c3C1=O)C2=O (centres undefined) > 100 µM (inactive)

State the recorded GI50 for this entry: CCC1CN2CCc3c([nH]c4ccccc34)[C@@](C(=O)OC)(c3cc4c(cc3OC)N(C)C3C(O)(C(=O)OC)C(C(=O)OC)C5(CC)C=CCN6CCC43C65)C[C@@H](C2)[C@@H]1C(C)(C)C (some centres undefined) 1.47 µM (inactive)

State the recorded GI50 for this entry: Nc1ccc2nc3ccc(=O)cc-3n(-c3ccccc3)c2c1 78.9 µM (inactive)

---

- Test system: SNB-19
- EXPERIMENT NOTES: NCI tumour cell line growth inhibition, 48 h
The source made the active and inactive calls. Rule as the data show it: active = GI50 up to about 1.1 µM and inactive = higher.
Outcomes you can answer with include only these: active, inactive

Record excerpt, results attached:
O=C(Nc1ccc([N+](=O)[O-])cc1)Nn1cnnc1 = inactive
O=P(O)(O)C(NCC(O)CN1CCOCC1)P(=O)(O)O (configuration not stated) = inactive
COC(=O)c1cc(C(=CCC[C@H]2CC[C@@]3(C)C(CCC4C3CC[C@@]3(C)C4CC[C@@H]3C(C)CCCC(C)C)C2)c2cc(Cl)c(O)c(C(=O)OC)c2)cc(Cl)c1O (some centres not stated) = inactive
O=C(/C=C1\Nc2ccccc2C(=O)N1c1ccc(Cl)cc1)c1ccncc1 = inactive
CCOC(=O)NC(C(F)(F)F)(C(F)(F)F)P(=O)(OCC)OCC = inactive
CC(=O)C(=[N+]=[N-])C(=O)N1CCOC1=O = inactive
COc1ccc(-c2c(C3=NCCCN3)nnn2-c2ccc([N+](=O)[O-])cc2)cc1 = inactive
OC(Cc1cccnc1)(c1ccccc1)c1ccccc1 = inactive

Could you please tell me the result logged for C=CC(=O)N1C/C(=C\c2ccccc2)C(=O)/C(=C/c2ccccc2)C1 in this assay? inactive

Could you please tell me the result logged for Clc1ccc(-c2c(C3=NCCCN3)nnn2-c2ccc(Cl)cc2)cc1 in this assay? inactive

Could you please tell me the result logged for Cc1c(C(=O)CC(=O)C(=O)NC2C3CC4CC(C3)CC2C4)[n+]([O-])c2ccccc2[n+]1[O-] (configuration not stated) in this assay? inactive

Could you please tell me the result logged for CC1CN1c1c(C(=O)/C=C/c2ccc(F)cc2)c(-c2ccccc2)nn(C)c1=O (configuration not stated) in this assay? inactive

Could you please tell me the result logged for N=C(N)C1CN(CC=O)C(=O)NC1=O (configuration not stated) in this assay? inactive

Could you please tell me the result logged for CC(=O)C1C(=O)C(=O)N(c2cccc([N+](=O)[O-])c2)C1=O (configuration not stated) in this assay? inactive

Could you please tell me the result logged for Cc1ccnc(Nc2[nH]c(C(=O)c3ccc(Cl)cc3)c(N)c2C(=S)Nc2ccccc2)c1 in this assay? inactive

Could you please tell me the result logged for CC(C)(C)OC(=O)Nc1nnc(S(N)(=O)=O)s1 in this assay? inactive

Could you please tell me the result logged for CNC(=O)CN1CC(=O)N(C)C(=O)C1 in this assay? inactive

Could you please tell me the result logged for CC(C)(Oc1ccc(/C=C/C(=O)c2ccccc2)cc1)C(=O)Nc1c(Cl)cccc1Cl in this assay? inactive

Could you please tell me the result logged for Cc1cc2c(c(O)c1-c1c(C)cc(O)c3c1C(=O)C=CC3=O)C(=O)C=CC2=O in this assay? inactive

Could you please tell me the result logged for COC(=O)C(C)(/N=C/c1ccccc1)c1ccccc1 (configuration not stated) in this assay? inactive

Could you please tell me the result logged for CC(C)c1ccc(/C=C2/C=C(c3ccc4ccccc4c3)OC2=O)cc1 in this assay? inactive

Could you please tell me the result logged for CC1(C)C2CCC1(C)C(N/C(=C(/C(Cl)=C(Cl)Cl)[N+](=O)[O-])n1nnc3ccccc31)C2 (configuration not stated) in this assay? inactive

---

The following compounds have recorded GI50 on HCT-15.
Express it in µM; write the number only.

Recorded results for 4 compounds are shown here.
COc1ccc(C=C2C(C)=NN(c3cccc(Cl)c3)C23C(Cl)C(=O)N3c2nc3ccccc3s2)cc1 (stereo unspecified) = 16.8
CN(C)CCOc1cccc2c1C(=O)c1ccccc1C2=O = 12.2
C[Si](C)(C)C#C[I+]c1ccccc1 = 22.5
CC1=C(C(=O)Nc2ccccc2)C(c2cc(Cl)cc(Cl)c2)C(C(=O)Nc2ccccc2)=C(C)N1 = 1.71

Query GI50 on HCT-15 for Clc1ccc(-c2c(C3=NCCCN3)nnn2-c2ccc(Cl)cc2)cc1 75.5

Query GI50 on HCT-15 for CC(=O)OC(C)c1cc2c(s1)C(=O)c1c(C(C)OC(C)=O)csc1C2=O (stereo unspecified) 1.58

Query GI50 on HCT-15 for Nc1cc(-c2ccccc2)nn1-c1nsc2ccccc12 95.3

Query GI50 on HCT-15 for CC(=O)N1C(C(=O)NNc2ccccc2)CSC1c1ccccc1 (stereo unspecified) 1.56

Query GI50 on HCT-15 for CN(C)c1ccc(C2CC(c3ccc4ccccc4c3O)=NN2c2ccc([N+](=O)[O-])cc2[N+](=O)[O-])cc1 (stereo unspecified) 61.5

Query GI50 on HCT-15 for COC(=O)CCCC(=O)NC1=C(Nc2ccc(OC)cc2)C(=O)c2ccccc2C1=O 23.8

Query GI50 on HCT-15 for O=[N+]([O-])c1cccc(C2N3CCCCC3[C@@H]3c4[nH]c5ccccc5c4CCN23)c1 (stereo partly specified) 10.4

Query GI50 on HCT-15 for O=C(CBr)c1ccc2cc(Br)c3ccccc3c2c1 36.1

---

- System: SR
- EXPERIMENT NOTES: NCI tumour cell line growth inhibition, 48 h
Activity calls are given as the source filed them. Cut-off read from the data, not from the text of the source: active = GI50 up to about 1.1 µM and inactive = higher.
QUANTITY KIND: GI50

CC(C)(CO)CNc1cc(=O)[nH]c(N)n1 = > 100 µM (inactive)

State the recorded GI50 for this entry: CC1(C)OC(=O)C(C#N)=C1C[n+]1ccccc1 > 10 µM (inactive)

State the recorded GI50 for this entry: Cc1ccnc(Nc2[nH]c(C(=O)c3ccc(Cl)cc3)c(N)c2C(=S)Nc2ccccc2)c1 12.6 µM (inactive)

State the recorded GI50 for this entry: Cc1[nH]n(-c2ccc(S(=O)(=O)O)cc2)c(=O)c1/N=N/c1ccccc1 > 100 µM (inactive)

State the recorded GI50 for this entry: O=[N+]([O-])c1c(/C=N/Nc2ccccc2)oc(-c2ccc3c(c2)OCO3)c1-c1ccc2c(c1)OCO2 1.54 µM (inactive)

---

- Tested on: RXF 393
- EXPERIMENT NOTES: NCI tumour cell line growth inhibition, 48 h
Activity calls are given as the source filed them. Rule as the data show it: active = GI50 up to about 1.1 µM and inactive = higher.
QUANTITY KIND: GI50

Recorded results for 3 molecules are shown here.
CCCCCCCCCCCCNC(C)=O = 18.9 µM (inactive)
C=CCNc1nc2c(N)ncnc2s1 = > 10 µM (inactive)
CSC1=C(C(=O)Nc2ccc(C)cc2)C(N)=NC1=O = > 100 µM (inactive)

Query GI50 on RXF 393 for COc1ccc(C(=O)CC(=O)C(=O)Nc2ccc(C)c(C)c2)cc1 > 54.5 µM (inactive)

Query GI50 on RXF 393 for N#CC1C(C#N)C2(c3ccccc3)C(c3ccccc3)=NN(c3ccccc3)CC12 (configuration not stated) > 100 µM (inactive)

Query GI50 on RXF 393 for CC[C@@]12N=C(N(C)C)C[C@]1(O)ON=C2C > 100 µM (inactive)

Query GI50 on RXF 393 for CC(C)c1ccc(/C=C2/C=C(c3ccc4ccccc4c3)OC2=O)cc1 > 81.1 µM (inactive)

Query GI50 on RXF 393 for [N-]=[N+]=Nc1c(-c2ccccc2)c(=O)n(-c2ccccc2)c2ccccc12 45.7 µM (inactive)

Query GI50 on RXF 393 for O=C(Nc1cc(Cl)ccc1Cl)C(=O)C(c1cnc2ccccc2n1)[N+](=O)[O-] (configuration not stated) > 100 µM (inactive)

Query GI50 on RXF 393 for CC(=O)C(=[N+]=[N-])C(=O)N1CCOC1=O > 10 µM (inactive)

Query GI50 on RXF 393 for COC(=O)C(C(=O)C(=O)Nc1cccc(C)c1)C1=NC(N)SS1 (configuration not stated) > 100 µM (inactive)

Query GI50 on RXF 393 for CC(C)C(NCc1c2ccccc2nc2ccccc12)C(=O)O (configuration not stated) 24.5 µM (inactive)

Query GI50 on RXF 393 for O=c1[nH]c(=O)n(CCOCP(=O)(O)O)nc1Br > 100 µM (inactive)

Query GI50 on RXF 393 for CC1=NN(C(=O)CC(=O)Nc2cccc(Cl)c2)C(=O)C1/N=N/c1ccc(S(N)(=O)=O)cc1 (configuration not stated) > 100 µM (inactive)

Query GI50 on RXF 393 for Cc1ccc(OC(=O)N2C/C(=C\c3ccccc3)C(=O)/C(=C/c3ccccc3)C2)cc1 20.1 µM (inactive)

Query GI50 on RXF 393 for Cc1cc(C)n(CN(Cn2nc(C)cc2C)c2ccc(N(Cn3nc(C)cc3C)Cn3nc(C)cc3C)cc2)n1 20 µM (inactive)

Query GI50 on RXF 393 for NNC(=O)/C(NC(=O)c1ccccc1)=C(\N)c1ccc(Cl)cc1 > 100 µM (inactive)
